These measurements were taken from paper PMC5487681.

Catalogue of compounds with associated MIC
System: Saccharomyces cerevisiae ATCC 9763
ASSAY PROTOCOL: microbe, parasite or virus in culture
Type: cell-based
CONDITION DETAILS: Saccharomyces cerevisiae, ATCC9763; Table 3; read-out: MIC for growth inhibition, S. cerevisiae
Method: The following fungal isolates were used: Saccharomyces cerevisiae ATCC 9763, Candida albicans SC5314, Candida parapsilosis ATCC 22019, Candida tropicalis Ct016, Candida glabrata ATCC 90030, Aspergillus fumigatus ATCC 13073, and Aspergillus flavus ATCC MYA-1005. […] The plate was incubated for 20 to 24 h at 34°C (72 h for molds), and the OD490 was measured on a Victor X5 (PerkinElmer) plate reader. […]
VALUE TYPE: MIC (µM)

CN(C)CCCNc1ncnc2c1sc1nc(-c3ccccc3)c3c(c12)CCC3 [Compound 18] = 24
CCN(CC)CCCNc1nc(SC)nc2c1sc1nc(-c3ccccc3)c3c(c12)CCC3 [Compound 19] = 3.7
CCc1nc2sc3c(NCCCN(C)C)ncnc3c2c2c1CCCC2 [Compound 17] = 47
CCCCc1nc2sc3c(NCCCN(C)C)nc(SC)nc3c2c2c1CCC2 [Compound 15] = 1.5
O=c1c2ccccc2[se]n1-c1ccccc1 [Ebselen, reference compound] = 7.5
CCCCc1nc2sc3c(NCCCN(C)C)ncnc3c2c2c1CCCC2 [Compound 14] = 7.5
CN(C)CCCNc1ncnc2c1sc1nc(N3CCCCC3)c3c(c12)CCCC3 [Compound 16] = 3.2

====

Tested on: Candida albicans SC5314
ASSAY PROTOCOL: microbe, parasite or virus in culture
CONDITION DETAILS: Candida albicans, SC5314, read-out: MIC for growth inhibition, C. albicans
Note to self: MIC under 40 µM means Condition met, ties and anything higher get Condition not met.

CCCCc1nc2sc3c(NCCCN(C)C)ncnc3c2c2c1CCCC2 [Compound 14] = Condition met
CCCCc1nc2sc3c(NCCCN(C)C)nc(SC)nc3c2c2c1CCC2 [Compound 15] = Condition met
CN(C)CCCNc1ncnc2c1sc1nc(N3CCCCC3)c3c(c12)CCCC3 [Compound 16] = Condition met
CCN(CC)CCCNc1nc(SC)nc2c1sc1nc(-c3ccccc3)c3c(c12)CCC3 [Compound 19] = Condition met
CCc1nc2sc3c(NCCCN(C)C)ncnc3c2c2c1CCCC2 [Compound 17] = Condition not met
O=c1c2ccccc2[se]n1-c1ccccc1 [Ebselen, reference compound] = Condition met
CN(C)CCCNc1ncnc2c1sc1nc(-c3ccccc3)c3c(c12)CCC3 [Compound 18] = Condition not met

====

System: C. albicans
ASSAY PROTOCOL: Medium acidification assay, C. albicans
Assay type: cell-based, Candida albicans
CONDITION DETAILS: Candida albicans, 0.2 h; 50% inhibition of medium acidification, 12 min, n = 2 to 3; read-out: IC50 for acidification, C. albicans
VALUE TYPE: IC50 (µM)

O=c1c2ccccc2[se]n1-c1ccccc1 [Ebselen, reference compound] = 9.4
CCCCc1nc2sc3c(NCCCN(C)C)ncnc3c2c2c1CCCC2 = 6.6
CCCCc1nc2sc3c(NCCCN(C)C)nc(SC)nc3c2c2c1CCC2 = 1.6
CCN(CC)CCCNc1nc(SC)nc2c1sc1nc(-c3ccccc3)c3c(c12)CCC3 = 2.3
CN(C)CCCNc1ncnc2c1sc1nc(-c3ccccc3)c3c(c12)CCC3 = 8.8
CCc1nc2sc3c(NCCCN(C)C)ncnc3c2c2c1CCCC2 = 19.1
CN(C)CCCNc1ncnc2c1sc1nc(N3CCCCC3)c3c(c12)CCCC3 = 3.4

====

Let's go through some recorded MIC values for Candida spp. together.
VALUE TYPE: MIC

Cc1c(-c2ccccc2)[o+]c2ccccc2c1C#Cc1ccccc1 [Compound 6] = > 150 µM
COc1ccc(Cn2c(SCc3cc(C)ccc3C)nc3cc(OC)c(OC)cc3c2=N)cc1 [Compound 12] = > 150 µM
O=C1[C@@H]2C(c3ccc(Br)cc3)=NN(c3ccccc3)[C@@H]2C(=O)N1c1ccccc1F [Compound 2] = > 150 µM
COc1ccc(-c2cc(C(=O)Nc3ccc4c(c3)OCCO4)c3ccccc3n2)c(OC)c1 [Compound 8] = > 38 µM
COc1ccc(-c2cc(C(=O)Nc3ccc(C(C)C)cc3)c3ccccc3n2)c(OC)c1 [Compound 3] = > 150 µM
CCCCOc1ccc(C2C(C#N)=C(N)Oc3cc(O)ccc32)cc1 (stereo not drawn) [Compound 11] = > 150 µM
CC1CCCCN1CC(O)Cn1c(-c2ccccc2)c(-c2ccccc2)c2ccc3ccccc3c21 (stereo not drawn) [Compound 4] = > 38 µM
COc1cccc(Nc2nc(Cl)nc(Nc3cccc(OC)c3)n2)c1 [Compound 9] = > 150 µM
O=C1/C(=C/c2ccc(-c3cc(Cl)ccc3Cl)o2)C=C(c2ccccc2)N1c1ccccc1O [Compound 1] = > 150 µM

====

System: S. cerevisiae cells
ASSAY PROTOCOL: Intracellular ATP (iATP), S. cerevisiae
Format: cell-based, Saccharomyces cerevisiae
CONDITION DETAILS: S. cerevisiae and C. albicans (Fig. 5A, B); compared to compounds 14, 19 and BM2
VALUE TYPE: Effects on iATP levels, in words

[O]=[V]([O-])([O-])[O-] [Vanadate, reference compound] = minimal effects
N#CC(C#N)=NNc1cccc(Cl)c1 [CCCP, carbonyl cyanide m-chlorophenylhydrazone, reference compound] = minimal effects
CC[C@H]1/C=C/C=C/C[C@@H](C)[C@H](O)[C@@](C)(O)C(=O)[C@@H](C)[C@H](O)[C@@H](C)C(=O)[C@@H](C)[C@H](O)[C@@H](C)/C=C/C(=O)O[C@@H]2[C@H](C)[C@H](CC1)O[C@]1(CC[C@H](C)[C@H](C[C@@H](C)O)O1)[C@H]2C [oligomycin, reference compound] = minimal effects
CCc1nc2sc3c(NCCCN(C)C)ncnc3c2c2c1CCCC2 = minimal effects

====

System: C. albicans
ASSAY PROTOCOL: Medium acidification assay, C. albicans
Assay type: cell-based, Candida albicans
CONDITION DETAILS: Candida albicans; read-out: IC50 for C. albicans, extracellular acidification
VALUE TYPE: IC50 (µM)

O=c1c2ccccc2[se]n1-c1ccccc1 [Ebselen, reference compound] = 11

====

Reported log10 of IC50 values for the following compounds.
TARGET ENTITY: Na^+,K^+-ATPase (Sus scrofa)
Construct: from tissue; host or cells: porcine kidney (gift of Natalya Fedosova, Aarhus University)
ASSAY PROTOCOL: ATP hydrolysis assay, Na+,K+-ATPase
Type: biochemical, porcine
CONDITION DETAILS: Table 2; pH 7, n = 2; porcine kidney; read-out: IC50 for ATP hydrolysis, Na^+,K^+-ATPase
VALUE TYPE: log10 of IC50 (log10 of the value in µM)

CN(C)CCCNc1ncnc2c1sc1nc(-c3ccccc3)c3c(c12)CCC3 = 1.93
CCN(CC)CCCNc1nc(SC)nc2c1sc1nc(-c3ccccc3)c3c(c12)CCC3 = 0.74
[O]=[V]([O-])([O-])[O-] [Vanadate, reference compound] = -2.22
CN(C)CCCNc1ncnc2c1sc1nc(N3CCCCC3)c3c(c12)CCCC3 = 0.96
O=c1c2ccccc2[se]n1-c1ccccc1 [Ebselen, reference compound] = -0.80
CCCCc1nc2sc3c(NCCCN(C)C)nc(SC)nc3c2c2c1CCC2 = 0.61

====

TARGET ENTITY: S. cerevisiae Pma1 (Saccharomyces cerevisiae)
Sequence (P05030 whole entry): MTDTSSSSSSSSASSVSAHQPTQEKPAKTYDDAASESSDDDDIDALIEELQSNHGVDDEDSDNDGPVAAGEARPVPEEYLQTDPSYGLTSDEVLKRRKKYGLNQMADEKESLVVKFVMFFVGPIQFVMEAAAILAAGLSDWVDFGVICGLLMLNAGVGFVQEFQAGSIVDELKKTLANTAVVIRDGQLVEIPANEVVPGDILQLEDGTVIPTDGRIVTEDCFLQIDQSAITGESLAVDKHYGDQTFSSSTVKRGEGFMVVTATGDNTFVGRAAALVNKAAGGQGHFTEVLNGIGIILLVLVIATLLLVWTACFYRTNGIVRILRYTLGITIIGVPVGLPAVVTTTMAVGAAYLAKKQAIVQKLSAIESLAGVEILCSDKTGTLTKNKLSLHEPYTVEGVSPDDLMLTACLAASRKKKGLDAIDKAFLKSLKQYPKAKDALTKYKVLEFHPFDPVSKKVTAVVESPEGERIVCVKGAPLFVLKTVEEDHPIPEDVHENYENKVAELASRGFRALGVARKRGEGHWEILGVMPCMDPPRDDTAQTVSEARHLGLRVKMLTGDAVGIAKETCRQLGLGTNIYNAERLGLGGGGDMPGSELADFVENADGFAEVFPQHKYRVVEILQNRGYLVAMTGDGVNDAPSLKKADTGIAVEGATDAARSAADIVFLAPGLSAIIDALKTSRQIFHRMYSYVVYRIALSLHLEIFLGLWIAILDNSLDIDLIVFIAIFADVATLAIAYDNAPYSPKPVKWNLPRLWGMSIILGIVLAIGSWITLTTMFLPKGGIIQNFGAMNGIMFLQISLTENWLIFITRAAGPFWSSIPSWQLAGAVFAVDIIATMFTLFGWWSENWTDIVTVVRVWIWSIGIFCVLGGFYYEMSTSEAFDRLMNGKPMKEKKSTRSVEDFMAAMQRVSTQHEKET
ASSAY PROTOCOL: ATP hydrolysis assay, S. cerevisiae plasma membranes containing Pma1
Type: biochemical
Design: containing the full-length cDNA of the S. cerevisiae plasma membrane H^+-ATPase isoform PMA1; made in house; host or cells: S. cerevisiae RS72 (PMA1 cDNA under PMA1 promoter); also wild-type S. cerevisiae ATCC 9763
CONDITION DETAILS: Table 1; ATP hydrolysis at pH 7; 2 to 3 experiments; read-out: IC50 Pma1
Description: Plasma membranes containing Pma1 were isolated from S. cerevisiae RS72 cells containing the full-length cDNA of the S. cerevisiae plasma membrane H^+-ATPase isoform PMA1 under the control of the PMA1 promoter, as described in reference. […] The protein activity levels were determined by measuring the amount of free phosphate produced from the ATP hydrolysis reaction. […]
pIC50: −log10 of the molar value.
Label rule, in plain words: pIC50 of 5 and up is Criterion met, under 5 is Criterion not met.

COc1ccc(-c2cc(C(=O)Nc3ccc4c(c3)OCCO4)c3ccccc3n2)c(OC)c1 = Criterion met
COc1ccc(Cn2c(SCc3cc(C)ccc3C)nc3cc(OC)c(OC)cc3c2=N)cc1 = Criterion not met
O=C1[C@@H]2C(c3ccc(Br)cc3)=NN(c3ccccc3)[C@@H]2C(=O)N1c1ccccc1F = Criterion met
CN1CCc2c(sc3c2C(=O)NC(c2ccc(-c4cccc(Cl)c4)o2)N3)C1 (centres unmarked) = Criterion not met
COc1ccc(-c2cc(C(=O)Nc3ccc(C(C)C)cc3)c3ccccc3n2)c(OC)c1 = Criterion met
